Target: 5-HT1A receptors (Rattus norvegicus)
Test: In vitro ARG, inhibition of [11C]WAY-100635 binding in rat brain sections
Parameters: Twenty-micrometer-thick frozen brain sections were preincubated; from tissue; host or cells: rat brain (hippocampus and raphe nucleus): frozen sections or living animals
Conditions: hippocampus; 0.9 nM [11C]WAY-100635
MEASUREMENT KIND: pKi
// scale note: pKi = -log10(conc_M); give the bare number

The compound listed as "Cc1nnc(-c2cc3c(OC[C@@H](O)CN4CCC(c5ccc(Cl)c(Cl)c5)CC4)cccc3o2)o1.Cl" has a reported pKi of 8.09

====

Biological target: 5-HT1A receptors (Rattus norvegicus, UniProt P19327)
Sequence (P19327 whole entry): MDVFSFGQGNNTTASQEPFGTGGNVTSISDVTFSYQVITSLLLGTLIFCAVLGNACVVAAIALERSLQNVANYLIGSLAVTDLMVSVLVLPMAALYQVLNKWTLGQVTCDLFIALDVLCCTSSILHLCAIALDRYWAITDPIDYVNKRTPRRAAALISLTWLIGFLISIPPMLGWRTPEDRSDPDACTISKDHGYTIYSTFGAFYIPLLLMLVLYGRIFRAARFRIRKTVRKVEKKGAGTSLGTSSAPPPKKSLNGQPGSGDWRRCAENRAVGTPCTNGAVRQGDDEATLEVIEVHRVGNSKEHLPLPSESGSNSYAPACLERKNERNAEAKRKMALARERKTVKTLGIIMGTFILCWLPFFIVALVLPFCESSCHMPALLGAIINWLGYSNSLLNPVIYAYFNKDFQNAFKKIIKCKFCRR
Assay: In vitro ARG, inhibition of [11C]WAY-100635 binding in rat brain sections
Set-up: Twenty-micrometer-thick frozen brain sections were preincubated; from tissue; host or cells: rat brain (hippocampus and raphe nucleus): frozen sections or living animals
Details: raphe nucleus; 0.9 nM [11C]WAY-100635
MEASUREMENT KIND: pKi
// scale note: pKi = -log10(conc_M); give the bare number

The compound listed as "Cc1nnc(-c2cc3c(OC[C@@H](O)CN4CCC(c5ccc(Cl)c(Cl)c5)CC4)cccc3o2)o1.Cl" has a reported pKi of 8.10
